Attribute: kon
Target: T1, recombinant human IP-10 (human, UniProt P02778 22-98)
T1 construct: Bought from R&D Systems; also called CXCL10; rhIP-10
T1 sequence: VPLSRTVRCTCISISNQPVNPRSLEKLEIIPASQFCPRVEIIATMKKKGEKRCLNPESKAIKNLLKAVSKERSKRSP
Assay details: Biacore (SPR)
Numeric only. Scale: M⁻¹ s⁻¹

Worked cases, answers included:
{"columns": ["Binder", "Measurement type", "Readout value"],
 "data": [
  ["humanized monoclonal antibody HuAIP12 (antibody, human IgG1, V domains shown, Human IgG1/kappa; also called unmodified HuAIP12; Wild Type) VH: EVQLVQSGAEVKKPGATVKISCKVSGYTFTDYSMHWVRQAPGKGLKWMGWINTETGEPTYADDFKGRFTFTLDTSTSTAYMELSSLRSEDTAVYYCARNYDYDGYFDVWGQGTTVTVSS VL: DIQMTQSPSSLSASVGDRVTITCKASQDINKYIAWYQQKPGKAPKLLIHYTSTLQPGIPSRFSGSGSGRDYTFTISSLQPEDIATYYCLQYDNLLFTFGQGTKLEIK", "kon", 755000],
  ["murine monoclonal antibody AIP12 (antibody, V domains shown, Mouse hybridoma antibody; also called MuAIP12) VH: QIQLVQSGPELKKPGETVKISCKASGYTFTDYSMHWVKQAPGKGLKWMGWINTETGEPTYADDFKGRFAFSLETSASTAYLQINNLKNEDTATYFCARNYDYDGYFDVWGAGTTVTVSS VL: DIQMTQSPSSLSASLGGKVTITCKASQDINKYIAWYQHKPGKGPRLLIHYTSTLQPGIPSRFSGSGSGRDYSFSISNLEPEDIATYYCLQYDNLLFTFGSGTKLEIK", "kon", "1.05e+06"],
  ["humanized monoclonal antibody HuAIP13 (antibody, human IgG1, V domains shown, Human IgG1/kappa) VH: EVQLVQSGAEVKKPGATVKISCKVSGYTFTDYSMHWVRQAPGKGLKWMGWINTEIGEPTYADDFKGRFTFTLDTSTSTAYMELSSLRSEDTAVYYCARNYDYDAYFDVWGQGTTVTVSS VL: DIQMTQSPSSLSASVGDRVTITCKADQDINKYIAWYQQKPGKAPKLLLHHTSTLQPGIPSRFSGSGSGRDYTFTISSLQPEDIATYYCLQYDSLLFTFGQGTKLEIK", "kon", 156000]
]}

Respond only with kon recorded for murine monoclonal antibody AIP13 (antibody, V domains shown, Mouse hybridoma antibody; Mouse IgG1/kappa was used as its isotype control; also called MuAIP13) VH: QIQLVQSGPELKKPGETVKISCKASGYTFTDYSMHWVKQAPGKGLKWMGWINTEIGEPTYADDFKGRFAFSLETSASTAYLQINNLKNEDTATYFCARNYDYDAYFDVWGAGTTVTVSS VL: DIQMTQSPSSLSASLGGKVTITCKADQDINKYIAWYQHKPGRGPRLLLHHTSTLQPGIPSRFSGSGSGRDYSFSISNLEPADIATYYCLQYDSLLFTFGSGTKLEIK
158000
